Biological target: T1, myeloid-derived growth factor (human (produced in the Human Secretome …, UniProt Q969H8 32-173, limits assumed))
T1 construct: also called MYDGF; bMYDGF
T1 sequence (looked up): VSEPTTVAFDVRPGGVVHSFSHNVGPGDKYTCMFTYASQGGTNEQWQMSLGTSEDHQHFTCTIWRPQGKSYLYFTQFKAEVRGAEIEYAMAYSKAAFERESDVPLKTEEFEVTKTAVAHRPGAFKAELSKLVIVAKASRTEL
Experiment: SPR Biacore T200, target on CM5 chip, ADAPT injected, 1:1 fit
pKd: −log10 of the molar value.
experimental-readout: pKd

| binder | assay-result |
| --- | --- |
| LWWAKVSAIKELQAYGVSDFYYMLITKAKTVEGVEALKLHILAALP (designed binder) [ADAPT variant MYDGF_08] | 6.74 |
| LWWAKVWAVAELQKYGVSDFYFKLIDKAKTVEGVEALKLHILAALP (designed binder) [ADAPT variant MYDGF_07] | 6.64 |
